molecular target: Amyloid-beta precursor protein (Homo sapiens, UniProt P05067); test: Inhibition of amyloid beta-42 (unknown origin) self-mediated aggregation at 50 uM by thioflavin-T fluorescence assay
Sequence (P05067 whole entry): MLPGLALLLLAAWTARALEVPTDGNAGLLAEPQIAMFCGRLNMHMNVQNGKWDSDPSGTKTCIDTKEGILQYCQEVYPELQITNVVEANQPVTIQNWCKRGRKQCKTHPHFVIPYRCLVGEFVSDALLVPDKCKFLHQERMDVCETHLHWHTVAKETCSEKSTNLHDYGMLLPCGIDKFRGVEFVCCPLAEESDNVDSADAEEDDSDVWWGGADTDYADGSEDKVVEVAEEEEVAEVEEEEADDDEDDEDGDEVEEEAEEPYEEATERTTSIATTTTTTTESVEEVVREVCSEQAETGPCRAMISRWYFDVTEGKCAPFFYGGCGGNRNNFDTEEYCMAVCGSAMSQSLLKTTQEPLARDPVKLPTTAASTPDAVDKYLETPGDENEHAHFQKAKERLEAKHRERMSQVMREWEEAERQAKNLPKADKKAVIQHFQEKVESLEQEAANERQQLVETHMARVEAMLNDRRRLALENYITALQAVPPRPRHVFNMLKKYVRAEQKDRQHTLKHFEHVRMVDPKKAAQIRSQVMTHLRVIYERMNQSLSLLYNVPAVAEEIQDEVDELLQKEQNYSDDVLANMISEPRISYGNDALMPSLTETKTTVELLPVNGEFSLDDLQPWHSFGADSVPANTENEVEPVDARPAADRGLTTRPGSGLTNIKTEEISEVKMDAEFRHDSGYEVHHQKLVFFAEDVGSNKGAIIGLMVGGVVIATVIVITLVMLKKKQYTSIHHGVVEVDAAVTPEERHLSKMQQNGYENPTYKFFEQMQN
Calls of active or inactive are those of the source. The calls are words filed in the database; no cut-off is given here.
Observed property: inhibition

Reference set, count: 5
| Line notation | inhibition |
| --- | --- |
| CC(C)c1ccc2c(c1)C(=O)C[C@H]1[C@](C)(CNC(=O)C(F)(F)F)CCC[C@]21C | inactive |
| CC(=O)NC[C@]1(C)CCC[C@]2(C)c3ccc(C(C)C)cc3/C(=N/NC(C)=O)C[C@@H]12 | inactive |
| CC(=O)Oc1cc(/C=N\C[C@]2(C)CCC[C@]3(C)c4ccc(C(C)C)cc4CC[C@@H]23)cc(OC(C)=O)c1OC(C)=O | 20.6% |
| CC(C)c1ccc2c(c1)CC[C@H]1[C@](C)(CN)CCC[C@]21C | inactive |
| CC(C)c1ccc2c(c1)/C(=N/NC(=O)c1ccncc1)C[C@H]1[C@](C)(CNC(=O)C(F)(F)F)CCC[C@]21C | inactive |

Would you mind listing inhibition for each of the following molecules?
1. CC(C)c1ccc2c(c1)CC[C@H]1[C@](C)(CNC(=O)c3cc(O)c(O)c(O)c3)CCC[C@]21C
2. CC(C)c1c(NC(=O)/C=C/c2ccc(O)c(O)c2)cc2c(c1[N+](=O)[O-])CC[C@H]1[C@](C)(CNC(=O)/C=C/c3ccc(O)c(O)c3)CCC[C@]21C

["74.6%", "92%"]
